tested on: WNK4; conditions: concentration: 1 μM, replicates: in singlicate; n = 1;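 also: KINOMEscan kinase panel screen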
Would you please tag the item condition met when its %Inh is 2% or above, and condition not met when it is below?

The examples below pair each entry with its known result.
| Compound | Cat |
| --- | --- |
| Nc1ncc(-c2ccc3nccc(-c4ccncc4)c3c2)cc1S(=O)(=O)N1CCCCC1 [GSK1693850] | condition met |
| Cc1ccc(C)c(NC(=O)Nc2ccc(C)c(-c3ccc(C(=O)Nc4ccncc4)cc3)c2)c1 [GSK1398473] | condition met |
| CN(c1ccc(F)c(NC(=O)c2cccc(OC(C)(C)C#N)c2Cl)c1)c1ccc2nc(NC(=O)C3CC3)sc2n1 | condition not met |

Could you verify whether the entry COc1cc(Nc2ccnc3cc(-c4ccncc4)ccc23)cc(OC)c1OC.Cl [GW494610] shows %Inh of no less than 2%?
condition met

Could you verify whether the entry Cl.O=C(Nc1ccc(Oc2ccc3[nH]c(NC(=O)c4ccco4)nc3c2)cc1)Nc1cc(C(F)(F)F)ccc1F [GW683134] shows %Inh of no less than 2%?
condition met

====

test system: ICK; conditions: concentration: 1 μM, replicates: in singlicate; n = 1
Measurement Name: %Inh (%)
Give a bare numeral; the unit % is implied.

Entry `COC(=O)Nc1nc2cc(Oc3ccc(NC(=O)Nc4cccc(SC)c4)cc3)ccc2[nH]1.Cl` needs its %Inh filled in; supply it.
0

Entry `CC(=O)Nc1cn2nc(Oc3cccc(NC(=O)c4cccc(C(F)(F)F)c4)c3)ccc2n1` needs its %Inh filled in; supply it.
0

Entry `CCn1c(-c2nonc2N)nc2c(-c3ccccc3)ncc(OCCCN)c21.O=C(O)C(F)(F)F.O=C(O)C(F)(F)F` needs its %Inh filled in; supply it.
10

Entry `O=C(Nc1n[nH]c2nc(-c3ccccc3)ccc12)C1CC1` needs its %Inh filled in; supply it.
4

====

test system: EPHA3; conditions: concentration: 1 μM, replicates: in singlicate; n = 1
Measurement Name: %Inh (%)
Give a bare numeral; the unit % is implied.

Answered cases to consult:
| Chemical Smiles | %Inh, % |
| --- | --- |
| Cc1ccc(C)c(NC(=O)Nc2ccc(C)c(-c3ccc(C(=O)Nc4ccncc4)cc3)c2)c1 | 0 |
| CNc1nccc(-c2ccc3c(N)n[nH]c3c2)n1 | 12 |
| Cc1ccc(NC(=O)c2ccnc(N3CCCCC3)c2)cc1-c1ccc(C(=O)NCC2CC2)cc1 | 6 |
| Cl.N#CCc1ccc(Nc2nccc(Nc3ccc(Oc4ccccc4)cc3)n2)cc1 | 0 |
| O=C(O)C(F)(F)F.O=c1[nH]ccc2nc(N[C@@H]3CCNC3)nc(Nc3cc(Cl)cc(Cl)c3)c12 | 72 |
| Cc1nn2c(=O)cc(N3CCO[C@H](C)C3)nc2n1Cc1cccc(Cl)c1Cl | 0 |

Entry `COc1cc(Nc2nccc(N3CCC(NS(=O)(=O)c4ccc(NC(C)=O)cc4)CC3)n2)cc(OC)c1OC` needs its %Inh filled in; supply it.
0

Entry `O=C(O)C(F)(F)F.O=c1[nH]ccc2nc(N[C@@H]3CCNC3)nc(Nc3ccc4c(c3)S(=O)(=O)CC4)c12` needs its %Inh filled in; supply it.
93.9

====

Recorded %Inh for the following compounds
test system: CDK4-cyclinD3; details: concentration: 1 μM, replicates: in singlicate; n = 1
Give a bare numeral; the unit % is implied.

Answered cases to consult:
| Compound | %Inh (%) |
| --- | --- |
| Cc1nn2c(=O)cc(N3CCO[C@H](C)C3)nc2n1Cc1cccc(Cl)c1Cl [GSK2373693] | 2 |
| Nc1ncnc2scc(-c3ccc(NC(=O)Cc4cc(F)ccc4F)cc3)c12.O=C(O)C(F)(F)F [SB-731254-M] | 11 |

Entry Nc1ncc(-c2cn[nH]c2)c2scc(-c3ccc4c(c3)CCN4C(=O)Cc3ccccc3)c12 [GSK2593067] needs its %Inh filled in; supply it.
0

Entry O=C(Nc1n[nH]c2nc(-c3ccccc3O)ccc12)C1CC1 [SB-711880] needs its %Inh filled in; supply it.
17

Entry CCn1cnc2c(NCc3ccccc3)ncnc21 [SKF-96418] needs its %Inh filled in; supply it.
0

Entry Cc1cccc(Nc2nc(NCCN)ncc2C(N)=O)c1 [GSK1292139] needs its %Inh filled in; supply it.
6

Entry COC(=O)Nc1nc2ccc(Oc3ccc(CC(=O)Nc4cc(C(F)(F)F)ccc4F)cc3)cc2[nH]1 [GW680903] needs its %Inh filled in; supply it.
4

Entry CC(C)c1nc(-c2ccc(F)c(NS(=O)(=O)c3c(F)cccc3F)c2)c(-c2ccnc(Nc3ccc(N4CCOCC4)nc3)n2)s1 [GSK1804250] needs its %Inh filled in; supply it.
0

====

tested on: TAOK1; details: concentration: 1 μM, replicates: in singlicate; n = 1
Measurement Name: %Inh (%)
Give a bare numeral; the unit % is implied.

| Compound | %Inh, % |
| --- | --- |
| Cc1ccc(C)c(NC(=O)Nc2ccc(C)c(-c3ccc(C(=O)Nc4ccncc4)cc3)c2)c1 | 0 |
| CS(=O)(=O)c1cccc(CNc2nc(Nc3ccc4c(c3)CCC(=O)N4)ncc2C(F)(F)F)c1 | 0 |
| c1ccc(Oc2ccc(Nc3ccnc4cc(-c5ccc(CN6CCCCC6)o5)ccc34)cc2)nc1 | 0 |
| Fc1cc(Cl)ccc1Nc1ccnc2cc(-c3ccc(CN4CCOCC4)o3)ccc12 | 0 |
| COc1cccc(NC(=O)NCCNc2ccnc(Nc3ccc(F)cc3)n2)c1 | 0 |
| CC(C)c1nc(-c2cccc(NS(=O)(=O)c3c(F)cccc3F)c2)c(-c2ccnc(Nc3ccc(N4CCOCC4)nc3)n2)s1.Cl | 0 |

Entry `O=C(Nc1n[nH]c2nc(-c3ccccc3)ccc12)C1CC1` needs its %Inh filled in; supply it.
40

====

Recorded %Inh for the following molecules
test system: CSNK1E; details: concentration: 1 μM, replicates: in singlicate; n = 1
Give a bare numeral; the unit % is implied.

Answered cases to consult:
| Molecule | Assay Target | Measurement Unit | %Inh |
| --- | --- | --- | --- |
| Cl.Cl.NCC(NC(=O)c1cc(-c2cccnc2)c(-c2ccnc3[nH]ccc23)s1)c1ccccc1 (centres unmarked) | CSNK1E | % | 99 |
| COc1cccc(C2=C(Nc3cccc(O)c3)C(=O)NC2=O)c1 | CSNK1E | % | 29 |
| Cc1ccc(O)cc1Nc1ccnc2ccc(C(C)(C)C)cc12 | CSNK1E | % | 1 |
| Cc1nn2c(=O)cc(N3CCO[C@H](C)C3)nc2n1Cc1cccc(Cl)c1Cl | CSNK1E | % | 25 |
| CN(c1ccc(NC(=O)N2CCN(CCCN3CCOCC3)CC2)cc1)c1ccnc(Nc2ccc(CS(C)(=O)=O)cc2)n1.Cl | CSNK1E | % | 0 |
| Cc1ccc(NC(=O)c2ccc(Cl)c(Cl)c2)cc1-c1ccc(C(=O)Nc2ccncc2)cc1 | CSNK1E | % | 18 |
| Nc1cccc(-c2ccc3c(N)n[nH]c3c2)c1 | CSNK1E | % | 5 |
| N#Cc1cnc2cc(-c3cnc(CNCCN4CCOCC4)s3)ccc2c1Nc1ccc(Oc2ccccc2)cc1 | CSNK1E | % | 39 |
| CN1CCN(Cc2ccc(NC(=O)Nc3ccc(N(C)c4ccnc(Nc5ccc(CS(C)(=O)=O)cc5)n4)cc3)cc2)CC1.Cl | CSNK1E | % | 30 |
| CN(C)CCNS(=O)(=O)c1ccc(-c2ccnc3[nH]ccc23)cc1 | CSNK1E | % | 48 |

Entry `Cc1cc(-c2c(-c3ccc(F)cc3)ncn2CCCN2CCOCC2)nc(N)n1` needs its %Inh filled in; supply it.
1

Entry `Fc1cc(Cl)ccc1Nc1ccnc2cc(-c3ccc(CN4CCSCC4)o3)ccc12` needs its %Inh filled in; supply it.
27

Entry `CSc1ccc(NC2=C(c3ccc(Cl)cc3)C(=O)NC2=O)cc1` needs its %Inh filled in; supply it.
6

====

Recorded %Inh for the following compounds
test system: AMPK-alpha2; construct: gene PRKAA2; conditions: concentration: 1 μM, replicates: in singlicate; n = 1
Give a bare numeral; the unit % is implied.

| Compound | Result |
| --- | --- |
| O=C(Nc1c(F)cccc1F)c1cc(C(=O)c2ccccc2F)c[nH]1 [GSK1326180] | 0 |
| COc1ccc(NC(=O)c2ccoc2)cc1-c1ccc(C(=O)NCC2CC2)cc1 [GW810437] | 0 |
| N#CC1(c2cccc(C(=O)Nc3cccc(Oc4ccc5nc(NC(=O)C6CC6)sc5n4)c3)c2)CC1 | 27 |
| O=C(O)C(F)(F)F.O=c1[nH]ccc2nc(N[C@@H]3CCNC3)nc(Nc3ccc4c(c3)S(=O)(=O)CC4)c12 [GSK2181306] | 81 |
| COc1cccc(-c2nc(-c3ccccc3)[nH]c2-c2ccncc2)c1 [SB-610250] | 2 |
| Fc1cc(Cl)ccc1Nc1ccnc2cc(-c3ccc(CN4CCOCC4)o3)ccc12 [GW560109] | 21 |
| COc1cc(Nc2nccc(N3CCC(NC(=O)Nc4ccc5c(c4)OCO5)C3)n2)cc(OC)c1OC (stereo not shown) [GSK1379766] | 10 |
| COC(=O)Nc1nc2cc(Oc3ccc(NC(=O)Nc4cccc(SC)c4)cc3)ccc2[nH]1.Cl [GW697999] | 0 |

Entry CSc1ccc(NC2=C(c3ccc(Cl)cc3)C(=O)NC2=O)cc1 [SB-317658] needs its %Inh filled in; supply it.
30

Entry CC(C)c1nc(-c2cccc(NS(=O)(=O)c3c(F)cccc3F)c2)c(-c2ccnc(Nc3ccc(N4CCOCC4)nc3)n2)s1.Cl [GSK1723980] needs its %Inh filled in; supply it.
91.4

Entry COc1cccc2c(-c3ccncc3)c(-c3ccc(F)cc3)nn12 [GW468513] needs its %Inh filled in; supply it.
18

Entry Cc1ccc(O)cc1Nc1ccnc2ccc(C(C)(C)C)cc12 [GW856805] needs its %Inh filled in; supply it.
19

Entry Cc1ccc(C)c(NC(=O)Nc2ccc(C)c(-c3ccc(C(=O)Nc4ccncc4)cc3)c2)c1 [GSK1398473] needs its %Inh filled in; supply it.
0

Entry Cc1ccc(NC(=O)c2ccnc(N3CCCCC3)c2)cc1-c1ccc(C(=O)NCC2CC2)cc1 [GW775610] needs its %Inh filled in; supply it.
0

Entry `CC(C)(C)c1ccc(C(=O)Nc2cn3cc(-n4ccnc4)ccc3n2)cc1` needs its %Inh filled in; supply it.
0

Entry `CN(c1ccc(F)c(NC(=O)c2cccc(OC(C)(C)C#N)c2Cl)c1)c1ccc2nc(NC(=O)C3CC3)sc2n1` needs its %Inh filled in; supply it.
0

Entry `CCNc1nccc(-c2c(-c3ccc(F)cc3)ncn2C2CCN(C)CC2)n1` needs its %Inh filled in; supply it.
0

Entry CN(C)CCNS(=O)(=O)c1ccc(-c2ccnc3[nH]ccc23)cc1 [GSK977620] needs its %Inh filled in; supply it.
43
